tested on: A549-ACTB-RAB5A; test: lowest phenotypically active concentration; higher = less potent; settings: treatment time: 24 h
Where a name gives a salt, the structure may show the parent alone.
observation type: lowest phenotypically active concentration (µM)

>  <molecule>
CCOC(=O)c1c2c3c(cccc3[nH]c1=O)C(=O)c1ccccc1-2

>  <relation operator>
=

>  <measured result>
1

$$$$
>  <molecule>
Cc1cc(C(C)Nc2ccccc2)c2nc(N3CCOCC3)cc(=O)n2c1 (stereo not drawn)

>  <relation operator>
=

>  <measured result>
9

$$$$
>  <molecule>
Cc1ccc(NC2=CC(=O)c3sc(C)nc3C2=O)cc1

>  <relation operator>
=

>  <measured result>
9

$$$$
>  <molecule>
Cc1cc(Nc2ccc(NC(=O)c3ccc(Nc4ccnc5ccccc45)cc3)cc2)nc(N)n1

>  <relation operator>
=

>  <measured result>
1

$$$$
>  <molecule>
C[C@@H]1C[C@H]2[C@@H]3C[C@H](F)C4=CC(=O)C=C[C@]4(C)[C@@]3(F)[C@@H](O)C[C@]2(C)[C@@]1(O)C(=O)COC(=O)C(C)(C)C [flumethasone pivalate]

>  <relation operator>
≤

>  <measured result>
0.3

$$$$
>  <molecule>
NC(=O)Nc1cc(-c2cccc(F)c2)sc1C(=O)N[C@H]1CCCNC1 [AZD 7762 hydrochloride]

>  <relation operator>
=

>  <measured result>
1

$$$$
>  <molecule>
C/C(=N/NC(=N)N)c1ccc(NC(=O)Nc2ccc(/C(C)=N/NC(=N)N)cc2)cc1

>  <relation operator>
=

>  <measured result>
3

$$$$
>  <molecule>
COc1ccc(C[C@H](N)C(=O)N[C@H]2[C@@H](O)[C@H](n3cnc4c(N(C)C)ncnc43)O[C@@H]2CO)cc1 [Puromycin dihydrochloride]

>  <relation operator>
≤

>  <measured result>
0.3

$$$$

---

test system: HepG2-GM130-SQSTM1; assay: phenotypically active (imaging signature differs from DMSO and reproducible) at any of 0.3-9 uM (binary (1 = active, 0 = inactive)); higher = active; conditions: treatment time: 24 h
phenotypically active values by entry
observation type: phenotypically active

>  <molecular string>
CCCCC(=O)N(Cc1ccc(-c2ccccc2-c2nnn[nH]2)cc1)[C@H](C(=O)O)C(C)C

>  <measured result>
0

$$$$
>  <molecular string>
Cc1cc(C(=O)Nc2cccc(C(=O)Nc3cccc(C(F)(F)F)c3)c2)on1

>  <measured result>
0

$$$$
>  <molecular string>
COc1cc2ncnc(Nc3cccc(Br)c3)c2cc1OC

>  <measured result>
1

$$$$
>  <molecular string>
O=C(/C=C\c1ccc(O)c(O)c1)O[C@H]1C[C@](OC(=O)/C=C/c2ccc(O)c(O)c2)(C(=O)O)C[C@H](O)[C@H]1O

>  <measured result>
0

$$$$

---

system: A549-GM130-SQSTM1; experiment: phenotypically active (imaging signature differs from DMSO and reproducible) at any of 0.3-9 uM (binary (1 = active, 0 = inactive)); higher = active; conditions: treatment time: 24 h
Classes used: active, inactive

>  <compound>
O=C(Nc1nc2cc(C(F)(F)F)cc(NC3CC3)n2n1)c1cccnc1

>  <discrete label>
active

$$$$
>  <compound>
C[C@@H]1CN(CC(=O)Nc2ccc3c(c2)Cc2cccc(-c4cc(=O)cc(N5CCOCC5)o4)c2S3)C[C@H](C)O1

>  <discrete label>
active

$$$$
>  <compound>
COc1ccc(C[C@@H]2c3cc(OC)c(OC)cc3CC[N@+]2(C)CCC(=O)OCCCCCOC(=O)CC[N@@+]2(C)CCc3cc(OC)c(OC)cc3[C@H]2Cc2ccc(OC)c(OC)c2)cc1OC [Cisatracurium besylate]

>  <discrete label>
inactive

$$$$
>  <compound>
C=C1C[C@@]23CCC4[C@@](C)(CCC[C@@]4(C)C(=O)O[C@@H]4O[C@H](CO)C(O)[C@H](O)C4O)C2CC[C@@]1(O[C@H]1O[C@H](CO)C(O)[C@H](O)[C@H]1O[C@@H]1O[C@H](CO)[C@@H](O)[C@H](O)[C@H]1O)C3 (stereo partly specified) [Stevioside]

>  <discrete label>
inactive

$$$$
>  <compound>
FC(F)(F)c1ccc(/C=C/c2nc(COc3ccc(CCCCn4ccnn4)cc3)co2)cc1

>  <discrete label>
active

$$$$
>  <compound>
O=c1oc2c(O)c(O)cc3c(=O)oc4c(O)c(O)cc1c4c23

>  <discrete label>
inactive

$$$$

---

system: HepG2-ACTB-RAB5A; experiment: phenotypically active (imaging signature differs from DMSO and reproducible) at any of 0.3-9 uM (binary (1 = active, 0 = inactive)); higher = active; settings: treatment time: 24 h
Counter-ions that a name gives are not always drawn.
observation type: phenotypically active

>  <molecule>
OC[C@H]1NC[C@@H](O)[C@@H](O)[C@@H]1O [1-Deoxymannojirimycin hydrochloride]

>  <observation type>
phenotypically active

>  <measured result>
0

$$$$
>  <molecule>
COc1cc2nccc(Oc3ccc(NC(=O)C4(C(=O)Nc5ccc(F)cc5)CC4)cc3)c2cc1OC

>  <observation type>
phenotypically active

>  <measured result>
0

$$$$
>  <molecule>
CC(C)CCN1c2nc(Nc3cc(F)c(O)c(F)c3)ncc2N(C)C(=O)C1C (stereo not drawn)

>  <observation type>
phenotypically active

>  <measured result>
1

$$$$
>  <molecule>
COc1c(Nc2cc(C)[nH]n2)nc(Sc2ccc(S(=O)(=O)Cc3cccc([N+](=O)[O-])c3F)cc2F)nc1N1CCOCC1

>  <observation type>
phenotypically active

>  <measured result>
1

$$$$
>  <molecule>
CC1Cc2ccccc2N1NC(=O)c1ccc(Cl)c(S(N)(=O)=O)c1 (stereo not drawn) [indapamide]

>  <observation type>
phenotypically active

>  <measured result>
0

$$$$
>  <molecule>
C[C@@H](Oc1cc(-n2cnc3ccc(CN4CCN(C)CC4)cc32)sc1C(N)=O)c1ccccc1C(F)(F)F

>  <observation type>
phenotypically active

>  <measured result>
1

$$$$
>  <molecule>
CC(=O)O[C@H]1C(=O)[C@@]2(C)[C@H]([C@H](OC(=O)c3ccccc3)[C@]3(O)C[C@H](OC(=O)[C@H](O)[C@@H](NC(=O)c4ccccc4)c4ccccc4)C(C)=C1C3(C)C)[C@]1(OC(C)=O)CO[C@@H]1C[C@@H]2O

>  <observation type>
phenotypically active

>  <measured result>
1

$$$$
>  <molecule>
O=C(Nc1ccc(-c2ccnc(Nc3ccc(N4CCOCC4)cc3)n2)cc1)[C@@H]1CCCN1

>  <observation type>
phenotypically active

>  <measured result>
1

$$$$
>  <molecule>
O=C(Cn1ccnc1[N+](=O)[O-])NCc1ccccc1

>  <observation type>
phenotypically active

>  <measured result>
0

$$$$
>  <molecule>
Nc1nccc(-c2ccc3noc(-c4ccc(Cl)cc4)c3c2)n1

>  <observation type>
phenotypically active

>  <measured result>
0

$$$$
>  <molecule>
Cc1cnc(NC(=O)C2=C(O)c3ccccc3S(=O)(=O)N2C)s1

>  <observation type>
phenotypically active

>  <measured result>
0

$$$$
>  <molecule>
CC(C)c1cnn2c(NCc3ccccc3)cc(NCCCCCCN)nc12 [BS 181 dihydrochloride]

>  <observation type>
phenotypically active

>  <measured result>
0

$$$$
>  <molecule>
C[C@@H](N)[C@H]1CC[C@H](C(=O)Nc2ccncc2)CC1

>  <observation type>
phenotypically active

>  <measured result>
1

$$$$
>  <molecule>
Nc1ncnc2c1c(-c1ccc(Oc3ccccc3)cc1)nn2C1CCCC1

>  <observation type>
phenotypically active

>  <measured result>
0

$$$$
>  <molecule>
CC(C(=O)Nc1cccc(/N=C/c2c(O)ccc3ccccc23)c1)c1ccccc1 (stereo not drawn) [Salermide]

>  <observation type>
phenotypically active

>  <measured result>
0

$$$$
>  <molecule>
Cc1ccnn1-c1ccc(C(=O)N2CCN(S(=O)(=O)c3ccc(Cl)c(C(F)(F)F)c3)CC2)cc1

>  <observation type>
phenotypically active

>  <measured result>
0

$$$$
>  <molecule>
Cc1c(F)cc(C(=O)NC2CC2)cc1-c1ccc(C(=O)NCC(C)(C)C)cn1

>  <observation type>
phenotypically active

>  <measured result>
0

$$$$
>  <molecule>
CN(C)CC(O)Cn1c2ccc(Br)cc2c2cc(Br)ccc21 (stereo not drawn)

>  <observation type>
phenotypically active

>  <measured result>
1

$$$$
>  <molecule>
CCC(C)(C)C(=O)O[C@H]1C[C@@H](C)C=C2C=C[C@H](C)[C@H](CC[C@@H]3C[C@@H](O)CC(=O)O3)[C@H]21

>  <observation type>
phenotypically active

>  <measured result>
1

$$$$
>  <molecule>
CC(C)c1ccc(NC(=O)Cn2cnc3c2c(=O)n(C)c(=O)n3C)cc1

>  <observation type>
phenotypically active

>  <measured result>
0

$$$$
>  <molecule>
CC/C(=C(\CC)c1ccc(O)c(CN(CC)CC)c1)c1ccc(O)c(CN(CC)CC)c1

>  <observation type>
phenotypically active

>  <measured result>
1

$$$$
>  <molecule>
COC(=O)c1c(-c2cc(OC)c(OC)c(OC)c2)c2ccnc(OCc3ncccn3)c2c(=O)n1Cc1ccnc(C)c1 [T 0156 hydrochloride]

>  <observation type>
phenotypically active

>  <measured result>
0

$$$$
>  <molecule>
COc1ccc(-c2cc(=O)c3c(O)cc(O)cc3o2)cc1O

>  <observation type>
phenotypically active

>  <measured result>
0

$$$$
>  <molecule>
Cc1ccc(C(=O)c2cc(O)c(O)c([N+](=O)[O-])c2)cc1

>  <observation type>
phenotypically active

>  <measured result>
0

$$$$
>  <molecule>
CN(C)c1ccc(/C=C2\C(=O)Nc3ccccc32)cc1

>  <observation type>
phenotypically active

>  <measured result>
0

$$$$
>  <molecule>
CNC(=O)c1cc(Oc2ccc(NC(=O)Nc3ccc(Cl)c(C(F)(F)F)c3)cc2)ccn1

>  <observation type>
phenotypically active

>  <measured result>
1

$$$$
>  <molecule>
CO[C@H]1C[C@@H]2CC[C@@H](C)[C@@](O)(O2)C(=O)C(=O)N2CCCC[C@H]2C(=O)O[C@H]([C@H](C)C[C@@H]2CC[C@@H](OC(=O)C(C)(CO)CO)[C@H](OC)C2)CC(=O)[C@H](C)C=C(C)[C@@H](O)[C@@H](OC)C(=O)[C@H](C)C[C@H](C)C=CC=CC=C1C

>  <observation type>
phenotypically active

>  <measured result>
1

$$$$
>  <molecule>
N=C(N)NC(=N)NCCc1ccccc1

>  <observation type>
phenotypically active

>  <measured result>
0

$$$$
>  <molecule>
CCn1c(=O)n([C@H]2CCCN(c3nccc(-c4cc5ccccc5o4)n3)C2)c2ccccc21

>  <observation type>
phenotypically active

>  <measured result>
0

$$$$
>  <molecule>
O=C(O)c1c(Sc2ccccc2)c2cc(Cl)ccc2n1Cc1ccc(Cl)cc1

>  <observation type>
phenotypically active

>  <measured result>
0

$$$$
>  <molecule>
CCc1c(C(=O)Nc2cc(S(=O)(=O)N(CC)CC)ccc2O)[nH]c(C)c1C(C)=O

>  <observation type>
phenotypically active

>  <measured result>
1

$$$$
>  <molecule>
Cc1c(C)c2c(c(C)c1O)CC[C@@](C)(CCC[C@H](C)CCC[C@H](C)CCCC(C)C)O2 [Tocopherol (R,S)]

>  <observation type>
phenotypically active

>  <measured result>
0

$$$$
>  <molecule>
CCOc1ccccc1OCCN[C@H](C)Cc1ccc(OC)c(S(N)(=O)=O)c1

>  <observation type>
phenotypically active

>  <measured result>
0

$$$$
